So I've got a bunch of compounds here, and I need their IC50 values.
Target: RyR1/FKBP12 (Oryctolagus cuniculus)
Assay: Antagonist like activity at skeletal junction sarcoplasmic reticulum RyR1/FKBP12 complex assessed as decrease in [3H]ryanodine binding
Give bare numbers, in µM.

structure: O=C1CCNC(=O)CCc2cc(Br)c(cc2Br)Oc2cc(cc(Br)c2O)CCN1
quantity.name: IC50
measure.unit: µM
data.value: 47

Below: the item to evaluate.
Task item: Dear colleague, please send me the reported IC50 for [N-]=[N+]=Nc1cc2ccc1Oc1cc(cc(Br)c1O)CCNC(=O)CC2 when you can.
Reply: 63
